measurement-name: glass transition temperature (°C)

Worked examples, 5 compounds total:
{"compound": "*c1c(C)cc(-c2cc(C)c(N3C(=O)c4cccc(Oc5c(C)cc(-c6cc(C)c(Oc7cccc8c7C(=O)N(*)C8=O)c(C)c6)cc5C)c4C3=O)c(C)c2)cc1C (repeat unit)", "units-symbol": "°C", "meas-value": 327.00}
{"compound": "*Oc1ccc(S(=O)(=O)c2ccc(Oc3ccc(-c4ccc(-c5ccc(*)c(C(F)(F)F)c5)cc4)cc3C(F)(F)F)cc2)cc1 (repeat unit)", "units-symbol": "°C", "meas-value": 214.00}
{"compound": "*CCCCCCCCCCCN1C(=O)c2ccc(Oc3ccc4c(c3)C(=O)N(*)C4=O)cc2C1=O (repeat unit)", "units-symbol": "°C", "meas-value": 74.00}
{"compound": "*CC(=O)Nc1ccc(NC(=O)COc2ccc3ccccc3c2Sc2c(O*)ccc3ccccc23)cc1 (repeat unit)", "units-symbol": "°C", "meas-value": 268.00}
{"compound": "*c1ccc(Oc2ccc(-c3ccc(Oc4ccc(N5C(=O)c6ccc(Oc7ccc(C(C)(C)c8ccc(Oc9ccc%10c(c9)C(=O)N(*)C%10=O)cc8)cc7)cc6C5=O)cc4)cc3)cc2)cc1 (repeat unit)", "units-symbol": "°C", "meas-value": 220.00}

(a) *c1cc(-c2sc(-c3cc(CCCCCCCCCC)c(*)s3)cc2CCCCCCCCCC)c2cccccc1-2 (repeat unit)
(b) *Oc1ccc(C(C)(C)c2ccc(C(C)(C)c3ccc(OC(*)=O)cc3)cc2)cc1 (repeat unit)
Of the two listed items, which has the higher glass transition temperature? First: a Second: b Kindly state the label of the option you pick.
b

(P) *CCC(C)(C)CC(C)CNC(=O)c1ccc(C(=O)N*)cc1 (repeat unit)
(Q) *c1ccc(Oc2ccc(C3(c4ccc(Oc5ccc(N6C(=O)c7ccc(Oc8c(C)cc(C(C)(C)c9cc(C)c(Oc%10ccc%11c(c%10)C(=O)N(*)C%11=O)c(C)c9)cc8C)cc7C6=O)cc5)cc4)CC4CCC3C4)cc2)cc1 (repeat unit)
Which of the two items, P and Q , has the greater recorded glass transition temperature? Answer = label.
Q
(Q: 265.00 °C, P: 148.00 °C)
